# Tested on: Mycobacterium tuberculosis
# measurementDescription: Inhibition of Mycobacterium tuberculosis T6PP using T6P as substrate assessed as fraction of enzyme unbound with compound by measuring ratio of initial velocities of T6P substrate hydrolysis in presence and absence of compound at 1 mM after 5 mins by BioMol green dye based HTS assay
assayReadout: Ratio

>>> experimentalresult("O=[N+]([O-])c1ccc(O[C@@H]2O[C@H](COS(=O)(=O)O)[C@@H](O)[C@H](O)[C@H]2O)cc1")
1.27
>>> experimentalresult("O=S(=O)(O)OC[C@H]1O[C@@H](Oc2ccc(F)c(F)c2)[C@H](O)[C@@H](O)[C@@H]1O")
0.8
>>> experimentalresult("O=P(O)(O)OC[C@H]1O[C@@H](Oc2ccccc2)[C@H](O)[C@@H](O)[C@@H]1O")
0.94
>>> experimentalresult("CO[C@H]1O[C@H](COS(=O)(=O)O)[C@@H](O)[C@H](O)[C@H]1O")
0.91

* * *

# System: Mycobacterium tuberculosis
# measurementDescription: Inhibition of Mycobacterium tuberculosis T6PP using T6P as substrate assessed as fraction of enzyme unbound with compound by measuring ratio of initial velocities of T6P substrate hydrolysis in presence and absence of compound at 1 mM after 5 mins by BioMol green dye based HTS assay
Cut-off 1 on Ratio: below means Satisfied, at or above means Not satisfied.

>>> group("O=Cc1ccccc1O[C@@H]1O[C@H](COS(=O)(=O)O)[C@@H](O)[C@H](O)[C@H]1O")
"Not satisfied"
>>> group("O=S(=O)(O)OC[C@H]1O[C@@H](Oc2ccccc2CO)[C@H](O)[C@@H](O)[C@@H]1O")
"Satisfied"
>>> group("O=S(=O)(O)OC[C@H]1O[C@H](O)[C@H](O)[C@@H](O)[C@@H]1O")
"Satisfied"
>>> group("CC(=O)Nc1ccc(O[C@@H]2O[C@H](COS(=O)(=O)O)[C@@H](O)[C@H](O)[C@H]2O)cc1")
"Satisfied"
>>> group("COc1cc(C=O)cc(OC)c1O[C@@H]1O[C@H](COS(=O)(=O)O)[C@@H](O)[C@H](O)[C@H]1O")
"Not satisfied"
>>> group("O=S(=O)(O)OC[C@H]1O[C@H](OCc2ccccc2)[C@H](O)[C@@H](O)[C@@H]1O")
"Satisfied"
>>> group("NS(=O)(=O)OCc1cccc(N[C@@H]2O[C@H](CO)[C@@H](O)[C@H](O)[C@H]2O)c1")
"Not satisfied"
>>> group("O=S(=O)(O)OC[C@H]1O[C@H](O[C@H]2O[C@H](CO)[C@@H](O)[C@H](O)[C@H]2O)[C@H](O)[C@@H](O)[C@@H]1O")
"Satisfied"

* * *

# Tested on: Mycobacterium tuberculosis
# measurementDescription: Inhibition of Mycobacterium tuberculosis T6PP using T6P as substrate assessed as fraction of enzyme unbound with compound by measuring ratio of initial velocities of T6P substrate hydrolysis in presence and absence of compound at 1 mM after 5 mins by BioMol green dye based HTS assay
// classify: if (Ratio < 0.9) rule met else rule not met

>>> group("CO[C@H]1O[C@H](COS(=O)(=O)O)[C@@H](O)[C@H](OCc2ccccc2)[C@H]1O")
"rule not met"
>>> group("O=S(=O)(O)OC[C@H]1O[C@@H](Oc2ccc(CO)cc2)[C@H](O)[C@@H](O)[C@@H]1O")
"rule met"
>>> group("CCCCCCCCO[C@@H]1O[C@H](COS(=O)(=O)O)[C@@H](O)[C@H](O)[C@H]1O")
"rule met"
>>> group("O=S(=O)(O)OC[C@H]1O[C@@H](Oc2ccc(-c3ccccc3)cc2)[C@H](O)[C@@H](O)[C@@H]1O")
"rule met"
>>> group("OC[C@H]1O[C@H](O[C@H]2O[C@H](CO)[C@@H](O)[C@H](O)[C@H]2O)[C@H](O)[C@@H](O)[C@@H]1O")
"rule met"
>>> group("O=Cc1ccc(O[C@@H]2O[C@H](COS(=O)(=O)O)[C@@H](O)[C@H](O)[C@H]2O)cc1")
"rule met"
>>> group("O=S(=O)(O)OC[C@H]1O[C@H](Oc2ccccc2)[C@H](O)[C@@H](O)[C@@H]1O")
"rule not met"

Source of measurements: ChEMBL document CHEMBL4004850
